tested on: HDQ-P1; experiment: normalised viability (% of control), CellTiter-Blue; higher = more viable cells (about 100 = DMSO control); conditions: 100 nM; incubation time: 72 h
OBSERVED_PROPERTY: normalised viability (%)
Value expressed in %; do not type the unit.

Take a look at these entries with their results.
In [3]: df
Out[3]:
                      smiles_representation  measured_on  measurement_units  assay_value
0  CN1CCC(COc2cnc(-c3cccc(Cn4nc(-c5cccc(C#N)c5)ccc4=O)c3)nc2)CC1       HDQ-P1                  %         70.5
1  N#CC[C@H](C1CCCC1)n1cc(-c2ncnc3[nH]ccc23)cn1       HDQ-P1                  %          104
2     C[C@]1(c2nc3c(C(N)=O)cccc3[nH]2)CCCN1       HDQ-P1                  %         95.9
3  CS(=O)(=O)c1ccc(C(=O)Nc2ccc(Cl)c(-c3ccccn3)c2)c(Cl)c1       HDQ-P1                  %         88.8

# next molecule below
Query block: Please look up its normalised viability: `OC[C@H]1O[C@@H](n2cnc3c2N=CNC[C@H]3O)C[C@@H]1O`
Result block: 100
